Test system: MOLM14
Test: cell viability relative to vehicle control; higher = less cytotoxic;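 note: after 48 h exposure read by CellTiter-Glo luminescence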
Settings: 10 µM; SRSF2 genotype: SRSF2 wt/wt
Examples of compounds with documented cell viability follow.
Please state the value followed by its unit.

Inquiry: Given CCOc1nc2cccc(C(=O)O)c2n1Cc1ccc(-c2ccccc2-c2noc(=O)[nH]2)cc1 , state its recorded cell viability.
Reply text: 103%

Inquiry: Also COCCOC(=O)C1=C(C)NC(C)=C(C(=O)OC(C)C)C1c1cccc([N+](=O)[O-])c1 (configuration not stated) , if possible.
Reply text: 99.4%

Inquiry: What would you report for Cc1ccc(NC(=O)Nc2cc(C(F)(F)F)ccc2F)cc1Nc1ccc2c(c1)NC(=O)/C2=C\c1ccc[nH]1 ?
Reply text: 94.4%

Inquiry: Next up: CCN(C)S(=O)(=O)Nc1ccc(F)c(C(=O)c2c[nH]c3ncc(-c4cnc(C5CC5)nc4)cc23)c1F
Reply text: 92.7%

Inquiry: Here is the next compound: CCCc1nc2c(C)cc(-c3nc4ccccc4n3C)cc2n1Cc1ccc(-c2ccccc2C(=O)O)cc1
Reply text: 103%

---

Test system: MARIMO
Assay: cell viability relative to vehicle control; higher = less cytotoxic
Settings: 10 µM; SRSF2 genotype: SRSF2 wt/wt
Counter-ions that a name gives are not always drawn.
measured attribute: cell viability (%)
Reply numerically in %, unit not repeated.

Examples with their reported cell viability follow.
Inquiry: Param item = O=C(O)c1cc(I)ccc1NC(=O)[C@H](Cc1ccccc1)NCc1ccccc1 ; retrieve measured cell viability.
Reply text: 103

Inquiry: Follow-up entry: O=S(=O)(NC1CCCCC1)c1ccc2c(c1)C(=NO)c1cc(S(=O)(=O)NC3CCCCC3)ccc1-2
Reply text: 57.4

***
Inquiry: May I ask what cell viability has been recorded for CO[C@H]1/C=C/O[C@@]2(C)Oc3c(C)c(O)c4c(O)c(cc(O)c4c3C2=O)NC(=O)/C(C)=C\C=C\[C@H](C)[C@H](O)[C@@H](C)[C@@H](O)[C@@H](C)[C@H](OC(C)=O)[C@@H]1C [Rifamycin sodium salt] ?
Reply text: 7.05

Inquiry: Further, for CN(C)C(=O)c1ccc(S(=O)(=O)c2ccc(NC(=O)C(C)(O)C(F)(F)F)c(Cl)c2)cc1 (centres undefined) ?
Reply text: 58

---

Tested on: MOLM14
Test: cell viability relative to vehicle control; higher = less cytotoxic
Settings: 10 µM; SRSF2 genotype: SRSF2 P95H/wt
Measured cell viability accompanies every entry in the list below.
Write down the numeric answer in % and omit the unit.

Answered examples (5):
Inquiry: Request - read-out cell viability | tested on MOLM14 | compound CC1CNc2c(cccc2S(=O)(=O)N[C@@H](CCCNC(=N)N)C(=O)N2CC[C@@H](C)C[C@@H]2C(=O)O)C1 (some centres undefined)
Reply text: 103

Inquiry: Another: Cc1cc(Nc2cc(N3CCN(C)CC3)nc(/C=C/c3ccccc3)n2)n[nH]1
Reply text: 2.58

Inquiry: Same question for Cc1cc(O)c(C(=O)CCC(C)C)c(=O)o1 please.
Reply text: 96.5

Inquiry: Same thing, different compound: CCc1cncnc1N1CCN(Cc2nc3ccc(C(F)(F)F)cc3[nH]2)CC1
Reply text: 57.4

Inquiry: One more compound: CCCCCCCCCCCCCC(=S)NCCCC[C@H](NC(=O)OCc1ccccc1)C(=O)Nc1ccccc1
Reply text: 82

New cases:
Inquiry: Tell me reported cell viability for CS(=O)(=O)c1ccc(C2=C(c3ccccc3)C(=O)OC2)cc1 , tested with MOLM14.
Reply text: 94.7

The origin of these recorded values is the supplement of paper PMC10981050.
